- Test system: Acinetobacter baumannii
- assay-text: Antibacterial activity against imipenem-resistant Acinetobacter baumannii abh29 by broth dilution method
- Type: functional
property-name: MIC

1) CCN1CCN(C(=O)N[C@@H](C(=O)N[C@@H]2C(=O)N3[C@@H]2SC(C)(C)[C@@H]3C(=O)O)c2ccccc2)C(=O)C1=O; > 256 µg/mL
2) O=C(O)c1cn(C2CC2)c2cc(N3CCNCC3)c(F)cc2c1=O; > 32 µg/mL
3) NCC[C@H](O)C(=O)N[C@@H]1C[C@H](N)[C@@H](O[C@H]2O[C@H](CN)[C@@H](O)[C@H](O)[C@H]2O)[C@H](O)[C@H]1O[C@H]1O[C@H](CO)[C@@H](O)[C@H](N)[C@H]1O; > 256 µg/mL
4) C[C@@H](O)[C@H]1C(=O)N2C(C(=O)O)=C(SCCNC=N)C[C@H]12 [IMIPENEM ANHYDROUS]; 32 µg/mL
5) C[C@@H](O)[C@H]1C(=O)N2C(C(=O)O)=C(S[C@@H]3CN[C@H](C(=O)N(C)C)C3)[C@H](C)[C@H]12; > 32 µg/mL
